tested on: HEK293F cells; assay: In vitro expression of novel ionizable lipid nanoparticles, high content imaging (CA HA modFlu mRNA); format: cell-based; details: LNP with CA HA modFlu mRNA
measurementType: EC50 Hek293F (ng/well)

[[record]]
molecule = "CCCCCCCC(CCCCCCC)C(=O)O[C@@H]1CC2(CCN(CCCNc3c(NC)c(=O)c3=O)CC2)C[C@H]1OC(=O)C(CCCCCCC)CCCCCCC (racemic) [Example 55]"
measurementtype = "EC50 Hek293F (ng/well)"
recordednumber = 21.4

[[record]]
molecule = "CCCCCCCC(CCCCCCC)C(=O)OCC(COC(=O)C(CCCCCCC)CCCCCCC)N1CCC2(CCN(CCCCO)C2)CC1 [Example 22]"
measurementtype = "EC50 Hek293F (ng/well)"
recordednumber = 0.14

[[record]]
molecule = "CCCCCCCC(CCCCCCC)C(=O)O[C@H]1CC2(CCN(CCCCO)CC2)C[C@@H]1OC(=O)C(CCCCCCC)CCCCCCC (single isomer, unassigned) [Example 58]"
measurementtype = "EC50 Hek293F (ng/well)"
recordednumber = 1.6

[[record]]
molecule = "CCCCCCCCC(CCCCCC)C(=O)OCC(COC(=O)C(CCCCCC)CCCCCCCC)N1CCC2(CC1)CN(CCCCO)C2 (stereo not shown) [Example 50]"
measurementtype = "EC50 Hek293F (ng/well)"
recordednumber = 0.56

[[record]]
molecule = "CCCCCC/C=C\\CCCC(=O)OCC(COC(=O)C(CCCCCC)CCCCCCCC)N1CCC2(CCN(CCCCO)CC2)CC1 (stereo not shown) [Example 43]"
measurementtype = "EC50 Hek293F (ng/well)"
recordednumber = 33.3

[[record]]
molecule = "CCCCCCCCC(CCCCCC)C(=O)OCC(COC(=O)C(CCCCCC)CCCCCCCC)N1CCC2(CCN(C(C)CCCO)CC2)CC1 (stereo not shown) [Example 21]"
measurementtype = "EC50 Hek293F (ng/well)"
recordednumber = 0.28

[[record]]
molecule = "CCCCCCCC(CCCCCCC)C(=O)O[C@@H]1CC2(CCN(CCCO)CC2)C[C@H]1OC(=O)C(CCCCCCC)CCCCCCC (racemic) [Example 54]"
measurementtype = "EC50 Hek293F (ng/well)"
recordednumber = 1.5

[[record]]
molecule = "CCCCCCCCC(C(=O)OCC(COC(=O)C(CCCCCCCC)C1CCC1)N1CCC2(CCN(CCCCO)CC2)CC1)C1CCC1 (stereo not shown) [Example 4]"
measurementtype = "EC50 Hek293F (ng/well)"
recordednumber = 46.9

[[record]]
molecule = "CCCCCCCCC(CCCCCC)C(=O)OCC(COC(=O)C(CCCCCC)CCCCCCCC)N1CCC2(CCN(CCCCO)CC2)CC1 (stereo not shown) [Example 23]"
measurementtype = "EC50 Hek293F (ng/well)"
recordednumber = 0.47

[[record]]
molecule = "CCCCCCCC(CCCCCCC)C(=O)O[C@@H]1CC2(CCN(CCCCCO)CC2)C[C@H]1OC(=O)C(CCCCCCC)CCCCCCC (racemic) [Example 56]"
measurementtype = "EC50 Hek293F (ng/well)"
recordednumber = 0.60

[[record]]
molecule = "CCCCCCCCC(CCCCCCC)C(=O)OCC(COC(=O)C(CCCCCCC)CCCCCCCC)N1CCC2(CCN(CCCCO)CC2)CC1 (stereo not shown) [Example 26]"
measurementtype = "EC50 Hek293F (ng/well)"
recordednumber = 1.6

[[record]]
molecule = "CCCCCCCCC(CCCCCCCC)C(=O)O[C@@H]1CC2(CCN(CCCCO)CC2)C[C@H]1OC(=O)C(CCCCCCCC)CCCCCCCC (racemic) [Example 59]"
measurementtype = "EC50 Hek293F (ng/well)"
recordednumber = 2.3

[[record]]
molecule = "CCCCCCCCCCCCCCCC(=O)OCC(COC(=O)C(CCCCCC)CCCCCCCC)N1CCC2(CCN(CCCCO)CC2)CC1 (stereo not shown) [Example 7]"
measurementtype = "EC50 Hek293F (ng/well)"
recordednumber = 20.4


----------
experiment: RNA encapsulation efficiency, Quant-iT RiboGreen RNA assay (WISC HA modFlu mRNA LNPs); type: physicochemical; details: LNP with WISC HA modFlu mRNA
Quick reference: EE % of the listed items.
measurementType: EE % (%)

[[record]]
compound = "CCCCCCCC(CCCCCCC)C(=O)O[C@@H]1CC2(CCN(CCCCO)CC2)C[C@H]1OC(=O)C(CCCCCCC)CCCCCCC (racemic) [Example 51]"
measurementtype = "EE %"
unitspec = "%"
recordednumber = 96

[[record]]
compound = "CCCCCCCC(CCCCCCC)C(=O)OCC(COC(=O)C(CCCCCCC)CCCCCCC)C1CCC2(CC1)CCN(CCCCO)CC2 [Example 2]"
measurementtype = "EE %"
unitspec = "%"
recordednumber = 99

[[record]]
compound = "CCCCCCCC(CCCCCCC)C(=O)OCC1(COC(=O)C(CCCCCCC)CCCCCCC)CCC2(CCN(CCCCO)CC2)CC1 [Example 1]"
measurementtype = "EE %"
unitspec = "%"
recordednumber = 99

[[record]]
compound = "CCCCCCCC(CCCCCCC)C(=O)OCC(COC(=O)C(CCCCCCC)CCCCCCC)N1CCC2(CCN(CCCCO)CC2)CC1 [Example 3]"
measurementtype = "EE %"
unitspec = "%"
recordednumber = 99


----------
test: Encapsulation efficiency, RiboGreen RNA quantitation assay (CA HA modFlu mRNA LNPs); assay type: physicochemical; details: LNP with CA HA modFlu mRNA
measurementType: EE %

[[record]]
molecule = "CCCCCCCC(CCCCCCC)C(=O)OCC(COC(=O)C(CCCCCCC)CCCCCCC)N1CCC2(CC1)CN(CCCCO)C2"
measurementtype = "EE %"
result = "98%"

[[record]]
molecule = "CCCCCCCCCCCCCCCC(=O)OCC(COC(=O)CCC(CCCC)C(CCCC)CCCC)N1CCC2(CCN(CCCCO)CC2)CC1 (centres unmarked)"
measurementtype = "EE %"
result = "99%"

[[record]]
molecule = "CCCCCCCCC(CCCCCC)C(=O)OCC(COC(=O)C(CCCCCC)CCCCCCCC)N1CC2(CCN(CCCCO)CC2)C1 (centres unmarked)"
measurementtype = "EE %"
result = "99%"

[[record]]
molecule = "CCCCCCCCC(CCCCCC)C(=O)OCC(COC(=O)C(CCCCCC)CCCCCCCC)N1CCC2(CCN(CCCCCO)CC2)CC1 (centres unmarked)"
measurementtype = "EE %"
result = "100%"

[[record]]
molecule = "CCCCCCCC(CCCCCCC)C(=O)OCC1(COC(=O)C(CCCCCCC)CCCCCCC)CCC2(CCN(CCCCO)CC2)CC1"
measurementtype = "EE %"
result = "100%"

[[record]]
molecule = "CCCCCCCC(CCCCCCC)C(=O)OCCC(CCOC(=O)C(CCCCCCC)CCCCCCC)N1CCC2(CCN(CCCCO)CC2)CC1"
measurementtype = "EE %"
result = "99%"

[[record]]
molecule = "CCCCCCCCC(CCCCCCCC)C(=O)O[C@@H]1CC2(CCN(CCCCO)CC2)C[C@H]1OC(=O)C(CCCCCCCC)CCCCCCCC (racemic)"
measurementtype = "EE %"
result = "97%"

[[record]]
molecule = "CCCCCCCCCC(CCCC)C(=O)OCC(COC(=O)C(CCCCCC)CCCCCCCC)N1CCC2(CCN(CCCCO)CC2)CC1 (centres unmarked)"
measurementtype = "EE %"
result = "99%"

[[record]]
molecule = "CCCCCCCCC(CCCCCC)C(=O)OCC(COC(=O)C(CCCCCC)CCCCCCCC)N1CCC2(CC1)CN(CCCCO)C2 (centres unmarked)"
measurementtype = "EE %"
result = "99%"

[[record]]
molecule = "CCCCCCCCCCCCCCCC(=O)OCC(COC(=O)C(CCCCCC)CCCCCCCC)N1CCC2(CCN(CCCCO)CC2)CC1 (centres unmarked)"
measurementtype = "EE %"
result = "99%"

[[record]]
molecule = "CCCCCCCCC(CC1CC=CC1)C(=O)OCC(COC(=O)C(CCCCCCCC)CC1CC=CC1)N1CCC2(CCN(CCCCO)CC2)CC1 (centres unmarked)"
measurementtype = "EE %"
result = "99%"

[[record]]
molecule = "CCCCCCCC(CCCCCCC)CCC(=O)OCC(COC(=O)CCC(CCCCCCC)CCCCCCC)N1CCC2(CCN(CCCCO)CC2)CC1"
measurementtype = "EE %"
result = "100%"

[[record]]
molecule = "CCCCCCCCC(CCCCCC)C(=O)OCC(COC(=O)C(CCCCCC)CCCCCCCC)N1CCC2(CCN(CCCCCO)C2)CC1 (centres unmarked)"
measurementtype = "EE %"
result = "100%"

[[record]]
molecule = "CCCCCCCCC(CCCC)C(=O)OCC(COC(=O)C(CCCC)CCCCCCCC)N1CCC2(CCN(CCCCO)CC2)CC1 (centres unmarked)"
measurementtype = "EE %"
result = "97%"

